The values you see were collected from patent US11739100B2.

# target: recombinant Vps34 (Homo sapiens, UniProt Q8NEB9)
# Construct: purchased Invitrogen PV5126
# Sequence (Q8NEB9 whole entry): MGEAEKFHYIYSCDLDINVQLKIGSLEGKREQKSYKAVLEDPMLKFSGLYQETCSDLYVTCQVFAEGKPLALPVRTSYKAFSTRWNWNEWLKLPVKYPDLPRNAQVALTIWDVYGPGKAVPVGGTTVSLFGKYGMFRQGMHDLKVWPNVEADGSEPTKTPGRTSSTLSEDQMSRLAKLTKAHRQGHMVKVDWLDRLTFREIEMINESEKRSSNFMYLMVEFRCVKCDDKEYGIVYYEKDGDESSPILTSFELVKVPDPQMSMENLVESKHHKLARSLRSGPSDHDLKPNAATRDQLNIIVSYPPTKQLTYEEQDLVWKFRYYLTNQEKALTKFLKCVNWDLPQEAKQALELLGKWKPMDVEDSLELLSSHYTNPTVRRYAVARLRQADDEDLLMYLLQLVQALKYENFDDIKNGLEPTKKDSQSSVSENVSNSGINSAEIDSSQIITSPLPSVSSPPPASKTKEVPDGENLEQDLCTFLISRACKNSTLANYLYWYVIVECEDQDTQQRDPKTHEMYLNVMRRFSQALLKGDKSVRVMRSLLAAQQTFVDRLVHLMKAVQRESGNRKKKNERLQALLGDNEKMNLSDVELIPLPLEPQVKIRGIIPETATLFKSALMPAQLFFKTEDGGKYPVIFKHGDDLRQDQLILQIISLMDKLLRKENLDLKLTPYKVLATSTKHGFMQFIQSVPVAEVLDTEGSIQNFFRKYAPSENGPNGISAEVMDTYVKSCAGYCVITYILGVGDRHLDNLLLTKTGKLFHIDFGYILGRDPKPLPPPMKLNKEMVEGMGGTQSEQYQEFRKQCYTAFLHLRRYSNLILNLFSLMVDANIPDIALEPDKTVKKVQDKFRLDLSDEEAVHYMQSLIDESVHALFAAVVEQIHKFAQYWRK
# assay_protocol: Phosphorylation of phosphatidylinositol (PI) by Vps34 in vitro, ADP detected by TR-FRET (HTRF Transcreener ADP)
# Type: biochemical
# study_conditions: 10 μM ATP, 55 μg/ml PI, approximately 3 nM Vps34, 1 hour at ambient temperature; absolute IC50, mean of two independent experiments; read-out: IC50 activity range
Reported IC50 is given for each of the following compounds.
measure_name: IC50

{"compound": "O=c1cc(N2CC3CCC(C2)O3)nc2n1CC[C@@H](C(F)(F)F)N2Cc1ccon1 [Example 169]", "measured_value": "10 to 100 nM"}
{"compound": "C[C@@H]1COCCN1c1cc(=O)n2c(n1)N(Cc1ccnc(Cl)c1)[C@](C)(C(F)(F)F)C2 [Example 181]", "measured_value": "< 10 nM"}
{"compound": "O=c1cc(N2CC3CCC(C2)O3)nc2n1CC[C@@H](C(F)(F)F)N2Cc1ccn(C(F)F)n1 [Example 167]", "measured_value": "10 to 100 nM"}
{"compound": "C[C@@H]1COCCN1c1nc2n(c(=O)c1F)CC[C@@H](C(F)(F)F)N2Cc1nc(C(F)(F)F)no1 [Example 251]", "measured_value": "< 10 nM"}
{"compound": "C[C@@H]1COCCN1c1nc2n(c(=O)c1F)C[C@@](C)(C(F)(F)F)N2CC(=O)c1ccccn1 [Example 199]", "measured_value": "< 10 nM"}
{"compound": "CC1COCC(C)N1c1cc(=O)n2c(n1)N(Cc1ccc(Cl)s1)[C@H](C(F)(F)F)CC2 (stereo in doubt) [Example 152]", "measured_value": "< 10 nM"}
{"compound": "CC(C)CC(=O)CN1c2nc(N3CCOC[C@H]3C)c(F)c(=O)n2CC[C@H]1C(F)(F)F [Example 280]", "measured_value": "< 10 nM"}
{"compound": "Cc1nc(CN2c3nc(N4CC5CCC(C4)O5)cc(=O)n3CC[C@H]2C(F)(F)F)no1 [Example 270]", "measured_value": "10 to 100 nM"}
{"compound": "Cc1noc(CN2c3nc(N4CCOC[C@H]4C)cc(=O)n3CC[C@H]2C(F)(F)F)n1 [Example 17]", "measured_value": "< 10 nM"}
{"compound": "Cc1ccc(S(=O)(=O)N2c3nc(N4CCOC[C@H]4C)cc(=O)n3CC[C@H]2C(F)(F)F)cc1 [Example 104]", "measured_value": "10 to 100 nM"}
{"compound": "C[C@@H]1COCCN1c1nc2n(c(=O)c1F)CCC(C)(C)N2Cc1ccnn1C(F)F [Example 74]", "measured_value": "10 to 100 nM"}
{"compound": "C[C@@H]1COCCN1c1cc(=O)n2c(n1)N(c1ccc(C(F)(F)F)nc1)[C@H](C(F)(F)F)CC2 [Example 81]", "measured_value": "< 10 nM"}
{"compound": "CON(C)C(=O)CN1c2nc(N3CCOC[C@H]3C)cc(=O)n2CC[C@H]1C(F)(F)F [Example 196]", "measured_value": "< 10 nM"}
{"compound": "C[C@@H]1COCCN1c1nc2n(c(=O)c1F)CC[C@@H](C(F)(F)F)N2Cc1nccs1 [Example 232]", "measured_value": "< 10 nM"}
{"compound": "C[C@@H]1COCCN1c1nc2n(c(=O)c1F)CC[C@@H](C(F)(F)F)N2Cc1ncco1 [Example 42]", "measured_value": "< 10 nM"}
{"compound": "C[C@@H]1COCCN1c1nc2n(c(=O)c1F)[C@@H](C(F)(F)F)CCN2Cc1ncco1 [Example 129]", "measured_value": "< 10 nM"}
{"compound": "C[C@@H]1COCCN1c1nc2n(c(=O)c1F)CC[C@@H](C(F)(F)F)N2Cc1nc(C2CC2)no1 [Example 249]", "measured_value": "< 10 nM"}
{"compound": "CC1COCC(C)N1c1cc(=O)n2c(n1)N(CC(=O)c1ccccc1)[C@H](C(F)(F)F)CC2 (stereo in doubt) [Example 153]", "measured_value": "< 10 nM"}
{"compound": "Cc1nocc1C(=O)CN1c2nc(N3CCOC[C@H]3C)cc(=O)n2CC[C@H]1C(F)(F)F [Example 268]", "measured_value": "> 100 nM"}
